The reported numbers originate from patent US4822408A.

test system: cucumber cotyledon; experiment: tissue or blood; type: cell-based, Cucumis sativa var. National Pickling; settings: 0.06-64 ppm typically tested, inactive if more than 200 ppm
We begin with a simple list: items and their reported ED50.
READOUT_NAME: ED50 (ppm)

{"columns": ["COMPOUND_SMILES", "SUBJECT_OF_TEST", "NUMERIC_READOUT"],
 "data": [
  ["CC(C)(C)NC(=N)N[N+](=O)[O-]", "cucumber cotyledon", 31],
  ["CC(C)NC(=N)N[N+](=O)[O-]", "cucumber cotyledon", 45],
  ["C=CC(C)(C)NC(=N)N[N+](=O)[O-]", "cucumber cotyledon", 157],
  ["C=CCNC(=N)N[N+](=O)[O-]", "cucumber cotyledon", 22]
]}
